# Tested on: control sera (pooled serum of ten healthy LUMC hospital workers; commercial negative donor pooled serum from the Dutch bloodbank)
# Format: binding, human
So I've got a bunch of sequences here, and I need their Binding of Control serum LUMC to linear peptides values.
Keep it simple and answer with nothing but the number.

Report Binding of Control serum LUMC to linear peptides for MTTVYHITVSQIQLS 0.6

Let me know recorded Binding of Control serum LUMC to linear peptides for LNKRWQLALYKGFQF , thanks. 0.6

Consider the sequence KRWQLALYKGFQFIC and give its recorded Binding of Control serum LUMC to linear peptides. 0.5

Supply recorded Binding of Control serum LUMC to linear peptides for AAEASKKPRQKRTAT here. 0.9

For the sequence AQFLYLYALIYFLQC , give its reported Binding of Control serum LUMC to linear peptides. 0.5

Tell me measured Binding of Control serum LUMC to linear peptides for SLPFGWLVIGVAFLA please. 0.6

Give the measured Binding of Control serum LUMC to linear peptides for NACRIIMRCWLCWKC 0.5

Tell me its Binding of Control serum LUMC to linear peptides given TQSTALQELLIQQWI as the entry. 0.6

Please give measured Binding of Control serum LUMC to linear peptides of the following entry: LGSITAQPVKIDNAS 0.5

Please report the measured Binding of Control serum LUMC to linear peptides for STAWLCALGKVLPFH 0.6

Provide Binding of Control serum LUMC to linear peptides value for the following sequence: PNNTASWFTALTQHG 0.7

Supply reported Binding of Control serum LUMC to linear peptides belonging to this sequence: HGYFTEVYYQLESTQ 0.3

Consider the sequence NYFVCWHTHNYDYCI . State its measured Binding of Control serum LUMC to linear peptides. 0.6

Output measured Binding of Control serum LUMC to linear peptides for this item: LKEDYQIGGYSEDRH 0.5

Please supply the value of reported Binding of Control serum LUMC to linear peptides for the item DPIYDEPTTTTSVPL 0.5

Name the recorded Binding of Control serum LUMC to linear peptides of the item SCELYHYQECVRGTT in your answer. 0.3

Please give the documented Binding of Control serum LUMC to linear peptides of ISTPKLKEDYQIGGY 1.0

Entry PFHRWHTMVQTCTPN needs its Binding of Control serum LUMC to linear peptides filled in; supply it. 0.5

Annotate the sequence NKFALTCTSTHFAFA with its measured Binding of Control serum LUMC to linear peptides. 0.5

Identify Binding of Control serum LUMC to linear peptides associated with the sequence RMASGGGETALALLL 0.5

Find the measured Binding of Control serum LUMC to linear peptides of GVKDYVVVHGYFTEV and report it. 0.7

Report measured Binding of Control serum LUMC to linear peptides; entry is SRSRGNSRNSTPGSS 0.5

Give Binding of Control serum LUMC to linear peptides for the following sequence: RGTTVLLKEPCPSGT 0.8

Input NPLLYDANYFVCWHT , output reported Binding of Control serum LUMC to linear peptides. 0.6

Return value of Binding of Control serum LUMC to linear peptides for input SKNPLLYDANYFVCW , no commentary. 0.5

Return Binding of Control serum LUMC to linear peptides (reported value) for this sequence: YVYSRVKNLNSSEGV 0.6

Kindly indicate its recorded Binding of Control serum LUMC to linear peptides. Item: YNVTQAFGRRGPEQT 0.6

Query Binding of Control serum LUMC to linear peptides for SLHKLLQTLVLKMLH 0.3

Tell me Binding of Control serum LUMC to linear peptides reported for WLCALGKVLPFHRWH 0.6

Name the recorded Binding of Control serum LUMC to linear peptides of the sequence listed here: RQKRTATKQYNVTQA 0.8

Provide Binding of Control serum LUMC to linear peptides value for the following sequence: NSRNSTPGSSRGNSP 0.7

Using the record for TFGGPTDSTDNNQNG , state its measured Binding of Control serum LUMC to linear peptides. 0.7

Identify the reported Binding of Control serum LUMC to linear peptides for the following entry. GGYSEDRHSGVKDYV 0.4
